Test system: HDAC
Test protocol: Inhibitory activity against HDAC (BIOMOL Quantizyme Assay system, Fluor de Lys substrate)
Type: biochemical
Details: Table 7, formula (4) series; HeLa nuclear extract as source of HDAC enzymes; enzyme reaction 1 hr; read-out: HDAC Inhibitory conc. (IC50, μM/ml)
Parameter: IC50 (µM)

- Compound: "O=C(NO)c1ccc(/C=C(/CNC2CCNC2)COc2cccc3ccccc23)cc1 (stereo not shown)"
  Parameter: "IC50"
  Number: 0.02
- Compound: "O=C(NO)c1ccc(/C=C(/CNC2CCN(C3CCCC3)CC2)COc2cccc3ccccc23)cc1"
  Parameter: "IC50"
  Number: 0.016

1. CCN1CCC(NC/C(=C/c2ccc(C(=O)NO)cc2)COc2cccc3ccccc23)CC1
2. COc1ccc(CCNC/C(=C/c2ccc(C(=O)NO)cc2)COc2cccc3ccccc23)cc1
Smaller IC50 value, 1 vs 2 ? Refer to your chosen entry by its label in the reply. 1

* * *

Tested on: HDAC
Test protocol: Inhibitory activity against HDAC (BIOMOL Quantizyme Assay system, Fluor de Lys substrate)
Format: biochemical
Details: Table 7, formula (4) series; HeLa nuclear extract as source of HDAC enzymes; enzyme reaction 1 hr; read-out: HDAC Inhibitory conc. (IC50, μM/ml)
Parameter: IC50 (µM)

Solved entries:
- Molecule: "CN(C)c1ccc(CNC/C(=C/c2ccc(C(=O)NO)cc2)COc2cccc3ccccc23)cc1 [Example 4-24]"
  IC50 / µM: 0.011
- Molecule: "CN1CCCC1CCNC/C(=C/c1ccc(C(=O)NO)cc1)COc1cccc2ccccc12 (centres unmarked) [Example 4-14]"
  IC50 / µM: 0.013
- Molecule: "COCCNC/C(=C/c1ccc(C(=O)NO)cc1)COc1cccc2ccccc12 [Example 4-20]"
  IC50 / µM: 0.01
- Molecule: "O=C(NO)c1ccc(/C=C(/CNCCCn2ccnc2)COc2cccc3ccccc23)cc1 [Example 4-16]"
  IC50 / µM: 0.003

P. O=C(NO)c1ccc(/C=C(/CNCc2cccs2)COc2cccc3ccccc23)cc1 [Example 4-22]
Q. CC(C)N1CCC(NC/C(=C/c2ccc(C(=O)NO)cc2)COc2cccc3ccccc23)CC1 [Example 4-15]
When the recorded IC50 values are compared, which is smaller: that of P or that of Q ? Returns: label corresponding to the selected item. Q
(Q: 0.014 µM, P: 0.02 µM)

1. CCN1CCC(NC/C(=C/c2ccc(C(=O)NO)cc2)COc2cccc3ccccc23)C1 (centres unmarked) [Example 4-2]
2. O=C(NO)c1ccc(/C=C(/CNC2CCN(CC3CCCCC3)C2)COc2cccc3ccccc23)cc1 (centres unmarked) [Example 4-8]
Lab notebook, comparison: 1 versus 2 , higher IC50 goes to which? Choose, then provide that item's label. 2
(2: 0.045 µM, 1: 0.017 µM)

Numbers sourced from patent US8053435B2.
